The origin of these recorded values is patent US9868766B2.

Target: human Oxytocin (OTR) receptor (Homo sapiens)
Construct: expressed in transfected cells
Sequence (P30559 whole entry): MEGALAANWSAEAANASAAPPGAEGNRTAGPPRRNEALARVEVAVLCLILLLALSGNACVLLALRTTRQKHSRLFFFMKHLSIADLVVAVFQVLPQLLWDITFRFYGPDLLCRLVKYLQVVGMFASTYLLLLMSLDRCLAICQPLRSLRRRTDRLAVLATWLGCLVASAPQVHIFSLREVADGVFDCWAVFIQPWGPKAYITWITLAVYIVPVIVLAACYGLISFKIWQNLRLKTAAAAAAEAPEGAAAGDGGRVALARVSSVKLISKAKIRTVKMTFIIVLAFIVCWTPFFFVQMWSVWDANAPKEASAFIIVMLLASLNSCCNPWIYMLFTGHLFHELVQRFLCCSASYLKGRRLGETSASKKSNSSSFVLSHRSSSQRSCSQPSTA
Experiment: Calcium flux assay (FLIPR), agonist mode, CHO cells expressing human OTR
Type: cell-based
Conditions: maximum response normalized to endogenous full agonist = 100%
Positions of bridges follow the written chain, without caps; N, C: chain ends. Non-standard residues stand in square brackets, D forms with d. Residues, ends and D or L forms follow the SMILES beside them. Phe(4-NH2) = Nc1ccc(C[C@H](N)C(=O)O)cc1; Sar = CNCC(=O)O
quantity-name: hOT efficacy (%)
Reply with just the number (in %).

- molecule: "CC[C@H](C)[C@@H]1NC(=O)[C@H](Cc2ccc(O)cc2)NC(=O)CN(C)C(=O)CC[C@@H](C(=O)N2CCC[C@H]2C(=O)N[C@@H](CC(C)C)C(=O)NCC(N)=O)NC(=O)[C@H](CC(N)=O)NC(=O)[C@H](CCC(N)=O)NC1=O [Example 12] ([Sar]YIQNEPLG-NH2; lactam N-6)"
  readout-value: 82
- molecule: "CC[C@H](C)[C@@H]1NC(=O)[C@H](Cc2ccc(N)cc2)NC(=O)CNC(=O)CC[C@@H](C(=O)N(C)CC(=O)N[C@@H](CC(C)C)C(=O)NCC(N)=O)NC(=O)[C@H](CC(N)=O)NC(=O)[C@H](CCC(N)=O)NC1=O [Example 2] (G[Phe(4-NH2)]IQNE[Sar]LG-NH2; lactam N-6)"
  readout-value: 112

Next molecule, please.
GET /value?item= CC(C)C[C@@H]1NC(=O)[C@H](Cc2ccc(O)cc2)NC(=O)CNC(=O)CC[C@@H](C(=O)N2CCC[C@H]2C(=O)N[C@@H](CC(C)C)C(=O)NCC(N)=O)NC(=O)[C@H](CC(N)=O)NC(=O)[C@H](CCC(N)=O)NC1=O [Example 8] (GYLQNEPLG-NH2; lactam N-6) &field=hOT efficacy (%) returns 92
